test system: Pseudomonas aeruginosa; assay: Growth inhibition of Pseudomonas aeruginosa ATCC 27853 incubated for 18 hrs; type: organism-based
OBSERVATION TYPE: MIC (µg/mL)

1) CC(C)CCOc1ccc2ccccc2c1-c1c(OCc2cn([C@H](CCCCN)C(=O)N[C@H](CCCNC(=N)N)C(=O)N3CCCCC3)nn2)ccc2ccccc12.Cl.Cl ... 16
2) CC(C)CCOc1ccccc1-c1ccccc1OCc1cn([C@H](CCCCN)C(=O)NC2CCCCC2)nn1.Cl ... 32
3) CC(C)CCOc1ccccc1-c1ccccc1OCc1cn([C@H](CCCNC(=N)N)C(=O)N[C@H](CCCCN)Cn2cc(CC3CCCCC3)nn2)nn1.Cl.Cl ... 16
4) CC(C)CCOc1ccccc1-c1ccccc1OCc1cn([C@H](CCCCN)C(=O)N[C@H](CCCNC(=N)N)Cn2cc(CC3CCCCC3)nn2)nn1.Cl.Cl ... 32

###

test system: Enterococcus faecalis; assay: Growth inhibition of Enterococcus faecalis ATCC 29212 incubated in MHB broth for 24 hrs; type: organism-based
OBSERVATION TYPE: MIC

1) CN[C@H](CC(C)C)C(=O)N[C@H]1C(=O)N[C@@H](CC(N)=O)C(=O)N[C@H]2C(=O)N[C@H]3C(=O)N[C@H](C(=O)N[C@H](C(=O)O)c4cc(O)cc(O)c4-c4cc3ccc4O)[C@H](O)c3ccc(c(Cl)c3)Oc3cc2cc(c3O[C@@H]2O[C@H](CO)[C@@H](O)[C@H](O)[C@H]2O[C@H]2C[C@](C)(N)[C@H](O)[C@H](C)O2)Oc2ccc(cc2Cl)[C@H]1O ... 4 µg/mL
2) CC(C)CCOc1ccccc1-c1ccccc1OCc1cn([C@H](CCCNC(=N)N)C(=O)N[C@H](CCCCN)Cn2cc(CC3CCCCC3)nn2)nn1.Cl.Cl ... 4 µg/mL
3) CC(C)CCOc1ccccc1-c1ccccc1OCc1cn([C@H](CCCNC(=N)N)C(=O)NCc2ccc(C(F)(F)F)cc2)nn1.Cl ... 16 µg/mL
4) CC(C)CCOc1ccc2ccccc2c1-c1c(OCc2cn([C@H](CCCCN)C(=O)N[C@H](CCCNC(=N)N)C(=O)NCc3ccccc3)nn2)ccc2ccccc12.Cl.Cl ... 8 µg/mL
5) CC(C)CCOc1ccccc1-c1ccccc1OCc1cn([C@H](CCCCN)C(=O)NCCc2ccccc2)nn1.Cl ... 8 µg/mL
6) CC(C)CCOc1ccccc1-c1ccccc1OCc1cn([C@H](CCCCN)C(=O)N[C@H](CCCNC(=N)N)Cn2cc(C3CCCCC3)nn2)nn1.Cl.Cl ... 16 µg/mL
7) CC(C)CCOc1ccc2ccccc2c1-c1c(OCc2cn([C@H](CCCNC(=N)N)C(=O)N[C@H](CCCCN)Cn3cc(CCc4ccccc4)nn3)nn2)ccc2ccccc12.Cl.Cl ... 4 µg/mL
8) CC(C)CCOc1ccccc1-c1ccccc1OCc1cn([C@H](CCCNC(=N)N)C(=O)N[C@H](CCCCN)Cn2cc(CCc3ccccc3)nn2)nn1.Cl.Cl ... 8 µg/mL
9) CC(C)CCOc1ccc2ccccc2c1-c1c(OCc2cn([C@H](CCCCN)C(=O)N[C@H](CCCNC(=N)N)Cn3cc(CC4CCCCC4)nn3)nn2)ccc2ccccc12.Cl.Cl ... 4 µg/mL
10) CC(C)CCOc1ccc2ccccc2c1-c1c(OCc2cn([C@H](CCCCN)C(=O)N[C@H](CCCNC(=N)N)C(=O)N3CCCCC3)nn2)ccc2ccccc12.Cl.Cl ... 8 µg/mL
11) CC(C)CCOc1ccccc1-c1ccccc1OCc1cn([C@H](CCCNC(=N)N)C(=O)NCCc2ccc(F)cc2)nn1.Cl ... 4 µg/mL

###

test system: Enterococcus faecalis; assay: Growth inhibition of Enterococcus faecalis ATCC 29212 incubated in MHB broth for 24 hrs; type: organism-based
Below: a set of entries, each annotated with reported MIC.
OBSERVATION TYPE: MIC (µg/mL)

1. CC(C)CCOc1ccc2ccccc2c1-c1c(OCC(=O)N[C@H](CCCNC(=N)N)C(=O)NCc2ccccc2)ccc2ccccc12.Cl ... 2
2. CC(C)CCOc1ccccc1-c1ccccc1OCc1cn([C@H](CCCCN)C(=O)N[C@H](CCCNC(=N)N)Cn2cc(Cc3ccccc3)nn2)nn1.Cl.Cl ... 8
3. CC(C)CCOc1ccc2ccccc2c1-c1c(OCc2cn([C@H](CCCNC(=N)N)C(=O)NCCc3ccccc3)nn2)ccc2ccccc12.Cl ... 4
4. CC(C)CCOc1ccccc1-c1ccccc1OCc1cn([C@H](CCCNC(=N)N)C(=O)NCc2ccccc2)nn1.Cl ... 8

###

assay: Cytotoxicity against HEK293 cells assessed as decrease in cell viability after 20 hrs by resazurin dye-based fluorescence assay; conditions: human
OBSERVATION TYPE: CC50 at 20 h (µg/mL)

1. CCCN(CC1CC1)C(=O)[C@@H](CCCNC(=N)N)n1cc(COc2ccccc2-c2ccccc2OCCC(C)C)nn1.Cl ... 19.7
2. CC(C)CCOc1ccccc1-c1ccccc1OCc1cn([C@H](CCCCN)C(=O)NCC2CCCCC2)nn1.Cl ... 5.6

###

test system: Enterococcus faecalis; test: Growth inhibition of Enterococcus faecalis ATCC 29212 incubated in MHB broth for 24 hrs; assay type: organism-based
OBSERVATION TYPE: MIC (µg/mL)

1) CC(C)CCOc1ccccc1-c1ccccc1OCc1cn([C@H](CCCCN)C(=O)NC2CCCCC2)nn1.Cl ... 16
2) CC(C)CCOc1ccccc1-c1ccccc1OCc1cn([C@H](CCCCN)C(=O)NCc2ccc(C(F)(F)F)cc2)nn1.Cl ... 4
3) CC(C)CCOc1ccccc1-c1ccccc1OCc1cn([C@H](CCCNC(=N)N)C(=O)N[C@H](CCCCN)Cn2cc(C3CCCCC3)nn2)nn1.Cl.Cl ... 8
4) CC(C)CCOc1ccc2ccccc2c1-c1c(OCc2cn([C@H](CCCCN)C(=O)N[C@H](CCCNC(=N)N)C(=O)NCCc3ccccc3)nn2)ccc2ccccc12.Cl.Cl ... 4
5) CC(C)CCOc1ccccc1-c1ccccc1OCc1cn([C@H](CCCCN)C(=O)NCCc2ccc(F)cc2)nn1.Cl ... 8
6) COc1cc(NC(=O)[C@@H](CCCNC(=N)N)n2cc(COc3ccccc3-c3ccccc3OCCC(C)C)nn2)cc(OC)c1.Cl ... 4
7) CC(C)CCOc1ccccc1-c1ccccc1OCc1cn([C@H](CCCNC(=N)N)C(=O)NC2CC2)nn1.Cl ... 32

###

assay: Cytotoxicity against HEK293 cells assessed as decrease in cell viability after 20 hrs by resazurin dye-based fluorescence assay; settings: human
OBSERVATION TYPE: CC50 at 20 h (µg/mL)

1. CC(C)CCOc1ccccc1-c1ccccc1OCc1cn([C@H](CCCNC(=N)N)C(=O)NCCc2ccc(F)cc2)nn1.Cl ... 19.1
2. CC(C)CCOc1ccccc1-c1ccccc1OCc1cn([C@H](CCCNC(=N)N)C(=O)NCC2CCCCC2)nn1.Cl ... 16.9
3. CC(C)CCOc1ccc2ccccc2c1-c1c(OCc2cn([C@H](CCCCN)C(=O)N[C@H](CCCNC(=N)N)C(=O)NCc3ccccc3)nn2)ccc2ccccc12.Cl.Cl ... 17.4
4. CC(C)CCOc1ccc2ccccc2c1-c1c(OCc2cn([C@H](CCCNC(=N)N)C(=O)NCc3ccccc3)nn2)ccc2ccccc12.Cl ... 16.5
5. CC(C)CCOc1ccc2ccccc2c1-c1c(OCc2cn([C@H](CCCCN)C(=O)N[C@H](CCCNC(=N)N)C(=O)N3CCCCC3)nn2)ccc2ccccc12.Cl.Cl ... 16.8
6. CC(C)CCOc1ccccc1-c1ccccc1OCc1cn([C@H](CCCCN)C(=O)N[C@H](CCCNC(=N)N)Cn2cc(Cc3ccccc3)nn2)nn1.Cl.Cl ... 17.1
7. CC(C)CCOc1ccccc1-c1ccccc1OCc1cn([C@H](CCCCN)C(=O)N[C@H](CCCNC(=N)N)Cn2cc(CCc3ccccc3)nn2)nn1.Cl.Cl ... 16.4
8. CC(C)CCOc1ccccc1-c1ccccc1OCc1cn([C@H](CCCNC(=N)N)C(=O)Nc2ccccc2)nn1.Cl ... 21.6
9. COc1cc(NC(=O)[C@@H](CCCNC(=N)N)n2cc(COc3ccccc3-c3ccccc3OCCC(C)C)nn2)cc(OC)c1.Cl ... 12.2
10. CC(C)CCOc1ccccc1-c1ccccc1OCc1cn([C@H](CCCCN)C(=O)NCCc2ccc(F)cc2)nn1.Cl ... 5.5
11. CC(C)CCOc1ccccc1-c1ccccc1OCc1cn([C@H](CCCNC(=N)N)C(=O)NCCc2ccccc2)nn1.Cl ... 17.9
12. CC(C)CCOc1ccccc1-c1ccccc1OCc1cn([C@H](CCCCN)C(=O)N[C@H](CCCNC(=N)N)Cn2cc(CC3CCCCC3)nn2)nn1.Cl.Cl ... 19.1
13. CC(C)CCOc1ccccc1-c1ccccc1OCc1cn([C@H](CCCCN)C(=O)N[C@H](CCCNC(=N)N)Cn2cc(C3CCCCC3)nn2)nn1.Cl.Cl ... 19.8
14. CC(C)CCOc1ccccc1-c1ccccc1OCc1cn([C@H](CCCNC(=N)N)C(=O)NC2CC2)nn1.Cl ... 20
15. CC(C)CCOc1ccccc1-c1ccccc1OCc1cn([C@H](CCCNC(=N)N)C(=O)NC2CCCCC2)nn1.Cl ... 19.7
16. CC(C)CCOc1ccccc1-c1ccccc1OCc1cn([C@H](CCCNC(=N)N)C(=O)NCc2cc(F)cc(F)c2)nn1.Cl ... 22.9
